Target: T1, ScPif1p E681G (Saccharomyces cerevisiae, UniProt P07271 237-780, E681G)
T1 sequence: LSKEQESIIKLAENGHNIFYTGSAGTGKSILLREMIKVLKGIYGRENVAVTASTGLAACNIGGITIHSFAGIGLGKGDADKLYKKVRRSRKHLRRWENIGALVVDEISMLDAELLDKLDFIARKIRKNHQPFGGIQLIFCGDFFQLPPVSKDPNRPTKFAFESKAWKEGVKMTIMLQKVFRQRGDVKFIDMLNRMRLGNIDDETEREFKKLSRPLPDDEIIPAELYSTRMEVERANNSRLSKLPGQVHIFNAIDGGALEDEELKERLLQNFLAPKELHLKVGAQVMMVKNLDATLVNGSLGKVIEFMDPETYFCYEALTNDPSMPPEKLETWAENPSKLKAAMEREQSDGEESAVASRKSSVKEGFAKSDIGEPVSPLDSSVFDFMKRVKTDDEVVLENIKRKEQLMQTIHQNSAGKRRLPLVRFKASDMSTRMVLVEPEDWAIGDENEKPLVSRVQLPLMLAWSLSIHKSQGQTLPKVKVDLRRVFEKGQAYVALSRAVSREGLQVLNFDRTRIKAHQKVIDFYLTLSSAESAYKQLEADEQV
Test: fluorescence anisotropy
measurement-kind: pKd
Keep in mind that pKd stands for -log10 of concentration in molar terms.

Would you please look over these solved cases?
- binder: "dsDNA16bp (dsDNA) DNA 1: CTCTGCTCGACGGATT DNA 2: AATCCGTCGAGCAGAG"
  endpoint-result: 7.25
- binder: "GTGTGTGTGGTG (ssDNA) [GR12]"
  endpoint-result: 7.91

# next binder below
Could you share which pKd value was measured for AGGGTGGGTGGGTGGGT (structured_DNA) [F-G417] ?
7.12
